# System: T cell lines against a natural (non-mutated) epitope (SSX-241-49)
# Assay name: Cross-reactivity and functional avidity: IFN-gamma from T cell lines against natural SSX-2 41-49 epitope
# Format: cell-based, HHD transgenic mice
# Run parameters: IFN-gamma from T cell line raised against native SSX-2 41-49; native = 1, lower = more active
Square brackets hold non-standard residues; d marks the D form. Peptide text beside a SMILES is read from it. Phe(4-NO2) = N[C@@H](Cc1ccc([N+](=O)[O-])cc1)C(=O)O; Nva = CCC[C@H](N)C(=O)O
Quantity: Cross-reactivity and fct avidity (native to analogs)*
Reply briefly: the number, and no unit.

## Task Which Cross-reactivity and fct avidity (native to analogs)* reading was recorded for the compound CC[C@H](C)[C@H](NC(=O)[C@H](CCCCN)NC(=O)[C@H](CCC(=O)O)NC(=O)[C@H](CO)NC(=O)[C@H](C)NC(=O)[C@@H](N)Cc1ccc([N+](=O)[O-])cc1)C(=O)N[C@@H](Cc1ccccc1)C(=O)N[C@@H](Cc1ccc(O)cc1)C(=O)N[C@H](C(=O)O)C(C)C [SSX2 41-49 (K41(Phe-4N02))] (H-[Phe(4-NO2)]ASEKIFYV-OH) ?
## Result 3

## Task Which Cross-reactivity and fct avidity (native to analogs)* reading was recorded for the compound CC[C@H](C)[C@H](NC(=O)[C@H](CCCCN)NC(=O)[C@H](CCC(=O)O)NC(=O)[C@H](CO)NC(=O)C(C)(C)NC(=O)[C@@H](N)CCCCN)C(=O)N[C@@H](Cc1ccccc1)C(=O)N[C@@H](Cc1ccc(O)cc1)C(=O)N[C@H](C(=O)O)C(C)C ?
## Result 3

## Task Which Cross-reactivity and fct avidity (native to analogs)* reading was recorded for the compound CCC[C@H](NC(=O)[C@H](CO)NC(=O)[C@@H](NC(=O)[C@@H](N)Cc1ccccc1)C(C)C)C(=O)N[C@@H](CCCCN)C(=O)N[C@H](C(=O)N[C@@H](Cc1ccccc1)C(=O)N[C@@H](Cc1ccc(O)cc1)C(=O)N[C@H](C(=O)O)C(C)C)[C@@H](C)CC [SSX2 41-49 (K41F, A42V, E44Nva), FVS(Nva)KIFYV] (H-FVS[Nva]KIFYV-OH) ?
## Result 3

###

Please go through the items and note down their Cross-reactivity and fct avidity (native to analogs)*.
# System: T cell lines against a natural (non-mutated) epitope (SSX-241-49)
# Assay name: Cross-reactivity and functional avidity: IFN-gamma from T cell lines against natural SSX-2 41-49 epitope;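 note: peptide analogs tested ex vivo with competent APCs, IFN-gamma in supernatant measured by ELISA, readouts include minimal triggering concentration, peak effect and concentration at peak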
# Assay type: cell-based, HHD transgenic mice
# Run parameters: IFN-gamma from T cell line raised against native SSX-2 41-49; native = 1, lower = more active
Ends that are not written are not given here.
Reply briefly: the number, and no unit.

## Task Which Cross-reactivity and fct avidity (native to analogs)* reading was recorded for the substance KLSEKIFYV [SSX2 41-49-NH2 (A42L)] ?
## Result 3

## Task Which Cross-reactivity and fct avidity (native to analogs)* reading was recorded for the substance KASEKIFYI [SSX2 41-49 (V49I)] ?
## Result 10

## Task Which Cross-reactivity and fct avidity (native to analogs)* reading was recorded for the substance KMSEKIFYV [SSX2 41-49 (A42M)] ?
## Result 0.1

## Task Which Cross-reactivity and fct avidity (native to analogs)* reading was recorded for the substance FVSEKIFYV [SSX2 41-49 (K41F, A42V)] ?
## Result 0.1

## Task Which Cross-reactivity and fct avidity (native to analogs)* reading was recorded for the substance FVSEKLFYV [SSX2 41-49 (K41F, A42V, I46L)] ?
## Result 3

## Task Which Cross-reactivity and fct avidity (native to analogs)* reading was recorded for the substance KVSEKIFYI [SSX2 41-49 (A42V, V491)] ?
## Result 0.3

## Task Which Cross-reactivity and fct avidity (native to analogs)* reading was recorded for the substance WMSEKIFYV [SSX2 41-49 (K41W, A42M)] ?
## Result 1

## Task Which Cross-reactivity and fct avidity (native to analogs)* reading was recorded for the substance FVSQKIFYV [SSX2 41-49 (K41F, A42V, E44Q)] ?
## Result 10

## Task Which Cross-reactivity and fct avidity (native to analogs)* reading was recorded for the substance WLSEKIFYV [SSX2 41-49 (K41W, A42L)] ?
## Result 0.3

## Task Which Cross-reactivity and fct avidity (native to analogs)* reading was recorded for the substance FISEKIFYV [SSX2 41-49 (K41F, A42I)] ?
## Result 0.3
